# assay_target: mfPRLR.mmh (monomeric macaca fascicularis PRLR)
# Sequence (as listed by the source): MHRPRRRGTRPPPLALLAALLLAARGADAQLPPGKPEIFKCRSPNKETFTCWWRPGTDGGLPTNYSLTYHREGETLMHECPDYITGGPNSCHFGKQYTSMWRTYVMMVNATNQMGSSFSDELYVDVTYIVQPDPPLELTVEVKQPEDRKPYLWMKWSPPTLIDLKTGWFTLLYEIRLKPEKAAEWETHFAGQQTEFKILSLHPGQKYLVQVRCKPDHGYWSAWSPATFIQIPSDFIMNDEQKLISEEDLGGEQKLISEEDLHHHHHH
# assay_details: Surface plasmon resonance (Biacore T200), mAb-capture format
# Type: binding
# settings: 25° C., antibody-capture format, analyte mfPRLR.mmh
# Experimental: Antibodies, expressed as human IgG1 Fc “[…]” designations), were captured onto an anti-human Fc sensor surface (mAb-capture format), and soluble monomeric (hPRLR.mmh; SEQ ID NO:401, or macaca fascicularis (mf) PRLR.mmh; SEQ ID NO:403) or dimeric (hPRLR.mFc; SEQ ID NO:402) PRLR protein was injected over the sensor surface. Measurements were conducted on a T200 Biacore instrument. […]
measurement_label: Kd (nM)
The reply should be a number in nM, with the unit left off.

A selection of reference data follows.
molecule	Kd, nM
H1H6803P: anti-PRLR antibody, human IgG1 Fc; HCVR/LCVR SEQ ID NOs 226/234 (antibody, V domains shown, human IgG1 Fc) VH: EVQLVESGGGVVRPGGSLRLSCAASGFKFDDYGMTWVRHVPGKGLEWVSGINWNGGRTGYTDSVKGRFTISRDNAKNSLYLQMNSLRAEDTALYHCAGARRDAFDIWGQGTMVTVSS VL: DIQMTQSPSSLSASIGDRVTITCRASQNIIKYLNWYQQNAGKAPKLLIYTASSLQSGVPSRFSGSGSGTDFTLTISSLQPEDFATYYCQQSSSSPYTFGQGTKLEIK	3.37
H1H6975N: human IgG1 Fc form of H2M6975N; anti-PRLR; HCVR/LCVR SEQ ID NOs 370/378 (antibody, V domains shown, human IgG1 Fc) VH: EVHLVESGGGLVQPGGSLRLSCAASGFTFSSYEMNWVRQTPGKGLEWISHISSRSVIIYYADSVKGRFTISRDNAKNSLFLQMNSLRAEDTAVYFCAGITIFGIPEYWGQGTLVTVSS VL: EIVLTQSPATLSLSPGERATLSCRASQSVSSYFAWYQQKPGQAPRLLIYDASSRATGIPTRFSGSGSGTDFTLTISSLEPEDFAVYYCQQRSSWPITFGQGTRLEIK	1.14
H1H6804P: anti-PRLR antibody, human IgG1 Fc; HCVR/LCVR SEQ ID NOs 242/250 (antibody, V domains shown, human IgG1 Fc) VH: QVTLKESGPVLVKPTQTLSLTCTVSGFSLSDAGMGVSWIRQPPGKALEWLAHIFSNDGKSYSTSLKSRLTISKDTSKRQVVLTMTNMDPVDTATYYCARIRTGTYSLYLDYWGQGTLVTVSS VL: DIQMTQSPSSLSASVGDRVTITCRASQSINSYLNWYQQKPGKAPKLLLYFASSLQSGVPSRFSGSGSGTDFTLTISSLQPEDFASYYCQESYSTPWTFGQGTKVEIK	1.99

Entry H1H6782P: anti-PRLR antibody, human IgG1 Fc; HCVR/LCVR SEQ ID NOs 66/74; non-blocking (antibody, V domains shown, human IgG1 Fc) VH: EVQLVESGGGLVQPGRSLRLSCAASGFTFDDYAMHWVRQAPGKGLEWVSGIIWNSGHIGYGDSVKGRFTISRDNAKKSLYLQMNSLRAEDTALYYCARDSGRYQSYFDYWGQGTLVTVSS VL: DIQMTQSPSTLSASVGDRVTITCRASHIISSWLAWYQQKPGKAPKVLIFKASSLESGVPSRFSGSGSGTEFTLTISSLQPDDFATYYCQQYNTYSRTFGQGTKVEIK , Kd reported as 1.05
